The values you see were collected from patent US20240417405A1.

# assay_system: menin/MLL (terbium chelate-labeled menin, FITC-MBM1 peptide) (Homo sapiens, UniProt O00255, T541A)
# Construct: Menin (a.a 1-610-6xhis tag)
# Sequence (O00255 with tags, fused parts or gaps T541A): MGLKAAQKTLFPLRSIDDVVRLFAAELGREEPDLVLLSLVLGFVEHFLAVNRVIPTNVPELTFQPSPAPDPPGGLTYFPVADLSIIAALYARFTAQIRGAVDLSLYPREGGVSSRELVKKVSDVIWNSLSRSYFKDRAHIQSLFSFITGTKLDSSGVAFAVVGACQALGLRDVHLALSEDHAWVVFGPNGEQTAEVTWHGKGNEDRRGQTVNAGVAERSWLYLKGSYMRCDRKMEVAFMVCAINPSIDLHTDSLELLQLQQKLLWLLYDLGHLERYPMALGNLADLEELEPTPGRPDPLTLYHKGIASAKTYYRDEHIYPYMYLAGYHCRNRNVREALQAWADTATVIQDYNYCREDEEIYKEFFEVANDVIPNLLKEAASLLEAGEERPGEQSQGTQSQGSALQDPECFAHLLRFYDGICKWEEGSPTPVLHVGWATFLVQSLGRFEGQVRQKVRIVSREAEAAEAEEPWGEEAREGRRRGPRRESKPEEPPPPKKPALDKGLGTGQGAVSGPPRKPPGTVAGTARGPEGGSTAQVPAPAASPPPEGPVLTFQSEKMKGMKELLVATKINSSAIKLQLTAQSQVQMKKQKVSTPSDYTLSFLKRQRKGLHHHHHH
# procedure_details: Menin/MLL homogenous time-resolved fluorescence (HTRF) assay
# Assay type: binding
# recorded_conditions: 30 min incubation
Measured pIC50 accompanies every entry in the list below.
Keep it numeric: pIC50 is minus log10 of the concentration in mol/L.

Study these solved cases before continuing.
compound	reported_measurement
CNC(=O)c1oc(N[C@H]2C[C@@H](C(C(C)C)N3CC4(CCN(c5ncnnc5Oc5ccc(F)cc5-c5cncnc5C5CC5)C4)C3)C2)nc1C (single isomer, unassigned)	10.15
CO[C@H]1[C@@H]2CN([C@H]3C[C@@H]([C@H](C(C)C)N4CC5(CCN(c6ncnnc6Oc6ccc(F)cc6-c6cnncc6C6CC6)C5)C4)C3)C[C@@H]21 (single isomer, unassigned) [Compound 282a]	8.62

Inquiry: GET /values?readout=pIC50&item= COC1(C(=O)N[C@H]2C[C@@H]([C@@H](C(C)C)N3CC4(CCN(c5ncnnc5Oc5ccc(F)cc5-c5cncnc5C5CC5)C4)C3)C2)CC1 (single isomer, unassigned)
Reply text: 9.40
